Target: Human MGAT-2 (Homo sapiens (Human), UniProt Q3SYC2)
Sequence (Q3SYC2 whole entry): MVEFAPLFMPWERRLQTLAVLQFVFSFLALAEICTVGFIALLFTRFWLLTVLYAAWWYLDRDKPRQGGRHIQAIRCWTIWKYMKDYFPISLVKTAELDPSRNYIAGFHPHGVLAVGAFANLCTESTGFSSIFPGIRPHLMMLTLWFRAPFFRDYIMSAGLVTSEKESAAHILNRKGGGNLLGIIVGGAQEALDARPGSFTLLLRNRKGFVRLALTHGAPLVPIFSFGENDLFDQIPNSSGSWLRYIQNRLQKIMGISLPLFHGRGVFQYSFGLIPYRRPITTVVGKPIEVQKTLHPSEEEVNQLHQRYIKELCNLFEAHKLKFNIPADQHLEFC
Test: MGAT LCMS Assay (human MGAT-2);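 further: diolein product quantified by LC/MS with positive APCI, expressed as peak area ratio versus an internal standard, and this ratio used to derive IC50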
Type: biochemical
Conditions: human MGAT-2 membranes expressed in Sf9 cells; 2-oleoylglycerol and oleoyl-Coenzyme A; read-out: h-MGAT2 IC50 (nM) LCMS Assay
recorded endpoint: IC50 (nM)

# compound, IC50 / nM
rows = [
    ("O=C1NC(c2ccc(OCCCCCC(F)(F)F)cc2)(C(F)(F)F)CC(c2ccc(OCC(F)F)cc2)=C1c1nn[nH]n1 (stereo not shown)", 8),
]

1. CCOc1ccc(C2=C(C#N)C(=O)NC(c3ccc(OCCCC(F)(F)F)cc3)(C(F)(F)F)C2)cc1Cl (stereo not shown) [Example 226]
2. Cc1ccc(C2=C(NC(=O)CS(C)(=O)=O)C(=O)NC(c3ccc(OCc4ccccc4)cc3)(C(F)(F)F)C2)cc1 (stereo not shown)
When 1 and 2 are compared, which has the higher number for IC50? Mark your selection by writing its label. 1

Data origin: patent US9187424B1
